These data points were gathered from paper PMC5789826.

Assay system: Hsp90α (Homo sapiens, UniProt P07900)
Measurement protocol: Fluorescence polarization assay (FITC-GDA tracer displacement), Hsp90α
Assay type: binding
Parameter measured: pKd
Quick note: pKd values are minus log10 of concentrations in mol/L.

Request - read-out pKd | tested on Hsp90α (Homo sapiens, UniProt P07900) | compound CC(C)c1cc(C(=O)N2Cc3ccccc3C2)c(O)cc1CC#N [Compound 2]
5.64

* * *

Assay system: UniProt:P08238
Sequence (P08238 whole entry): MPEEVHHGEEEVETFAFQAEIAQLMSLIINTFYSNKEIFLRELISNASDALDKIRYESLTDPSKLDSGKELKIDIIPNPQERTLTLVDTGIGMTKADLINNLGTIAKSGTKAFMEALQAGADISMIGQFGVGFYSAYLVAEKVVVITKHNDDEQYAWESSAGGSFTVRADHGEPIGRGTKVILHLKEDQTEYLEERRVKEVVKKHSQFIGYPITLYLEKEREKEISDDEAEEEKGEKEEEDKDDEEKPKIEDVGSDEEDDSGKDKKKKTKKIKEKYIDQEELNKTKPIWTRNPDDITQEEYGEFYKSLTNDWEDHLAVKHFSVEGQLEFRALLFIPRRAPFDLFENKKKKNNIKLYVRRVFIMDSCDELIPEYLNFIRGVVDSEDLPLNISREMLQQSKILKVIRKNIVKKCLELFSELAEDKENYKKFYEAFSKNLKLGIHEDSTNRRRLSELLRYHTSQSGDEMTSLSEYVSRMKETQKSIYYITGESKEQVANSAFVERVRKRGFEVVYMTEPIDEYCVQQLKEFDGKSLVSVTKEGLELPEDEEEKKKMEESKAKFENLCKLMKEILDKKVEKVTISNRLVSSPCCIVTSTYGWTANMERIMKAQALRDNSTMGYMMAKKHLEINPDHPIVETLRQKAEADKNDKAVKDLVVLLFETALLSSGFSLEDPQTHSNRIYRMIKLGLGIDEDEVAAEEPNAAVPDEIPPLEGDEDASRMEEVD
Measurement protocol: Fluorescence polarization assay (FITC-GDA tracer displacement), Hsp90β
Type: binding
Parameter measured: Kd (nM)
Please respond with the number in nM and leave the unit unwritten.

# query: Kd of entry `CC(C)c1cc(C(=O)N2Cc3ccccc3C2)c(O)cc1CC#N`
970
